Cited source: patent US20210179666A1

# targetOfAssay: human melanocortin 4 receptor (human, UniProt P32245 1-332)
# Sequence (P32245 whole entry): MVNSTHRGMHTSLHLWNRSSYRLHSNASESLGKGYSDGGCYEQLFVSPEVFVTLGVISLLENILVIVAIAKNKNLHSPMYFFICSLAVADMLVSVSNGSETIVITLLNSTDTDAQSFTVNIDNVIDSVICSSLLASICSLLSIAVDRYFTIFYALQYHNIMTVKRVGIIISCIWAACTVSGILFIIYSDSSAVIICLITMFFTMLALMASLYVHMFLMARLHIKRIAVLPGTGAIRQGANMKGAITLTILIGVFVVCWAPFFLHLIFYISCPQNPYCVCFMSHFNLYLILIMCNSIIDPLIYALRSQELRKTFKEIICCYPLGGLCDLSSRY
# test: cell-based or functional assay
Square brackets hold non-standard residues; d marks the D form. Dap = NC[C@H](N)C(=O)O
Param threshold (6) applies to pA2 (Schild analysis, agonist NDP-MSH, cAMP); output 1.0 when value >= threshold, 0.0 when value < threshold.

binder	answerLabel
cyclo(PRFFNVF[dP]) (Ala115Val SNP in the Asn scaffold; also called c[Pro-Arg-Phe-Phe-Asn-Val-Phe-DPro]) [ZMK 2-82]	1.0
cyclo(PHFF[Dap]AF[dP]) (Arg111His SNP in the Dap scaffold; also called c[Pro-His-Phe-Phe-Dap-Ala-Phe-DPro]) [ZMK 2-99]	1.0
cyclo(PCFF[Dap]AF[dP]) (Arg111Cys SNP in the Dap scaffold; also called c[Pro-Cys-Phe-Phe-Dap-Ala-Phe-DPro]) [ZMK 3-20]	0.0
cyclo(PCFFNAF[dP]) (Arg111Cys SNP in the Asn scaffold; also called c[Pro-Cys-Phe-Phe-Asn-Ala-Phe-DPro]) [ZMK 3-18]	0.0
cyclo(PRYF[Dap]AF[dP]) (Phe112Tyr SNP in the Dap scaffold; also called c[Pro-Arg-Tyr-Phe-Dap-Ala-Phe-DPro]) [ZMK 2-112]	1.0
cyclo(PRFF[Dap]VF[dP]) (Ala115Val SNP in the Dap scaffold; also called c[Pro-Arg-Phe-Phe-Dap-Val-Phe-DPro]) [ZMK 2-85]	1.0
cyclo(PHFFNAF[dP]) (Arg111His SNP in the Asn scaffold; also called c[Pro-His-Phe-Phe-Asn-Ala-Phe-DPro]) [ZMK 2-96]	0.0
cyclo(PRYFNAF[dP]) (Phe112Tyr SNP in the Asn scaffold; also called c[Pro-Arg-Tyr-Phe-Asn-Ala-Phe-DPro]) [ZMK 2-110]	1.0
